These entries and their values trace back to paper PMC12475274.

The entries below are paired with their reported log10 IC50.
# target under test: dephosphorylated IRE1α (547–977) (Homo sapiens, UniProt O75460)
# Construct: Human IRE1α kinase and RNase domain (residues 547–977) was subcloned into pLIB plasmid; His tag (with TEV cleavage site) (N, cleaved yes); made in house; host or cells: Sf9 insect cells, baculovirus (Bac-to-Bac)
# Sequence (O75460 547-977): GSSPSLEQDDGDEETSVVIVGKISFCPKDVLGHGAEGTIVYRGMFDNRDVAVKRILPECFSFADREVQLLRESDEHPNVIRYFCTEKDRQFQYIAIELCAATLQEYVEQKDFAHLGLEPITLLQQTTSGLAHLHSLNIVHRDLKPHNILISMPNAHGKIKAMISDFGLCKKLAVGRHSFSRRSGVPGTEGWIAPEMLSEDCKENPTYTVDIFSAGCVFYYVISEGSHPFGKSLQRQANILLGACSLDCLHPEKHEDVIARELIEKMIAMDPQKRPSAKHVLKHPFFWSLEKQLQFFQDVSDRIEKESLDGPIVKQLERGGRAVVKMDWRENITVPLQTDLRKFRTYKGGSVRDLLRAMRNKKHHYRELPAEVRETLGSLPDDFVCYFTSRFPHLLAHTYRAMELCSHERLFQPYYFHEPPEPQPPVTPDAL
# assay text: FRET-based IRE1α RNase activity assay, dephosphorylated IRE1α
# Type: biochemical
# reported conditions: FRET assay, RNase activity; mean (± SEM); read-out: IRE1α IC50
Scale: log10; quantity: IC50; unit before log: nM

Worked cases, log10 IC50 given:
Cc1c(CCC(=O)O)c2cc(F)ccc2n1C(=O)c1ccccc1 : 2.62
COc1ccc2c(c1)c(CCC(=O)O)c(C)n2C(=O)c1ccc2c(c1)C(=O)c1ccccc1C2=O : 2.88

Entry under review: "COc1ccc2c(c1)c(CCC(=O)O)c(C)n2C(=O)c1ccccn1" . Reported log10 IC50?
2.72

Now try "COc1ccc2c(c1)c(CCC(=O)O)c(C)n2C(=O)C1CCOCC1" .
3.31
